Below, each entry is listed alongside its reported gcPBM binding intensity (ln).
# Test system: PfAP2-LT AP2 domain (GST-tagged)
# run-description: gcPBM binding intensity (ln(normalized median fluorescence intensity)); higher = stronger DNA binding
The full ranking holds about 25,000 sequences; the median of “ln(normalized median fluorescence intensity)” is about 8.9, and the highest 2% start at about 10. For the sample, the highest values were picked, then their nearest neighbours and some sequences at random.
parameter: gcPBM binding intensity (ln)

>>> data_value("AAGAAGCATAAATGTACACACATATTTATATATTAA [CACACA_site1332]")
9.01
>>> data_value("ATAAATAAATAAGTACATATATATATGTATATATAT [TGCATGCA_negctrl_site223]")
9.05
>>> data_value("GAGCCCAAAAAATTAGGTACGTATAAAGAGGTATTT [XGTACX_site5348]")
8.8
>>> data_value("AATATACAAATTACAAGTACAAATCAATATTATATG [XGTACX_site7521]")
8.9
>>> data_value("TATATGTTATATTGGACACACACAATAAACATTATG [CACACA_site8480]")
9.21
>>> data_value("ATGTATAATATTTTCACACACAAGAAAAAAGAAAAG [CACACA_site3591]")
9.27
>>> data_value("CACAAACAAAAACACACACACACACCGACAAAAATG [CACACA_site5362]")
10.2
>>> data_value("TGAAAATATTTTATATGTACATATATTATCAATACA [XGTACX_site92]")
8.64
>>> data_value("ACAAATAAATAAAAAACACACACAAATAAATAAATA [CACACA_site8708]")
9.57
>>> data_value("TAAGACATGATATATACACACCTTGTTTTAATTTTC [CACACA_site5282]")
8.86
>>> data_value("ACACACAATACAAAAGTGCATATAATAATTAATCAT")
9.34
>>> data_value("AACATATACACGAACACACACACATATAAATAAATA [CACACA_site6380]")
9.87
>>> data_value("ATTTTTTATGGACAAAAGACCTCTGATGTAAATATA [CACACA_negctrl_site1081]")
8.38
>>> data_value("GTAATATATACAAAATGTACAAAACAATAACATGAT [XGTACX_site8575]")
9.2
>>> data_value("ATGTTACACCGACACACACACATAAAAAAACAAAAA [CACACA_site5750]")
9.61
>>> data_value("TATACTCATATATAAACACACAAAAAAAAAAAAAAA [CACACA_site5165]")
8.72
>>> data_value("TAAATTAAAAAACACACACACAAAAAAAAAAAAAAA [CACACA_site2263]")
9.41
>>> data_value("ACAATAAAAATTTATGCATGTGAATTGAAAAAAAAA [TGCATGCA_site1037]")
8.72
>>> data_value("TAACACATAAATAAATATATACATATATATAAAATA [CACACA_negctrl_site375]")
8.81
>>> data_value("CATATACTCGGACACACACACACACCGACAAAAAAA [CACACA_site4433]")
10.1
>>> data_value("TAAAATAAAACAAACACACACACACCGACACAAAAA [CACACA_site5993]")
10.1
